# maps each entry to its melting point

Field: example entries. Status: answers known.
compound	melting point
FC(F)(F)c1ccc(-c2cc3nccnc3[nH]2)cc1 [22 (RP8)]	238 °C (dec.)
Fc1ccc(-c2cc3nccnc3[nH]2)cc1 [18 (RP76)]	244 °C (dec.)
COc1ccc(-c2cc3nccnc3[nH]2)cc1 [14 (RP11)]	256.1 °C (dec.)

I'd like to know its melting point. The compound in question is Br.CCCc1c(-c2ccc(O)cc2)[nH]c2nccnc12 [33 (RP132)]
244 °C (dec.)

====

measured_target: GSK-3α/β
procedure_details: GSK-3 kinase assay (GS-1 peptide, 15 μM ATP)
Assay type: biochemical, porcine
test_settings: 15 μM ATP, Table 1; read-out: IC50 GSK-3
Method: Blank values were subtracted and activities calculated as pmoles of phosphate incorporated for a 10 min. incubation. […] Controls were performed with appropriate dilutions of dimethylsulfoxide. In a few cases phosphorylation of the substrate was assessed by autoradiography after SDS-PAGE. GSK-3α/β was either purified from porcine brain or expressed in and purified from insect Sf9 cells. […] The wet filters were counted in the presence of 1 ml ACS (Amersham) scintillation fluid. […]
pIC50: −log10 of the molar value.
result_type: pIC50

Field: example entries. Status: answers known.
molecule	pIC50
CCCCCCCc1c(-c2ccc(OC)cc2)[nH]c2nccnc12 [41 (RP111)]	< 5.00
Clc1cc(Cl)cc(-c2cc3nccnc3[nH]2)c1 [20 (RP15)]	< 4.00

For the next question, use this molecule.
I'd like to know its pIC50. The molecule in question is Cn1c(-c2ccccc2)cc2nccnc21 [48 (RP22)]
< 4.00
